Tested on: HEK-293T
assayText: Multiplex assay against HEK293T
Assay type: toxicity, cell-based
details: human, 48 h, 10 µM, compound concentration 10 uM, replicate 2
Classify by measured Population Pyknosed Nuclei (%): T if it is equal to or exceeds 8%, F if it is smaller.

Ask: Decide: is the reported value of Population Pyknosed Nuclei (%) for Cl.NCCc1ccc(O)c(O)c1 [DOPAMINE HYDROCHLORIDE] equal to or greater than 8%?
Reply: F

Ask: Decide: is the reported value of Population Pyknosed Nuclei (%) for "CC(C)(C)c1cc(NC(=O)Nc2ccc(-c3cn4c(n3)sc3cc(OCCN5CCOCC5)ccc34)cc2)no1" equal to or greater than 8%?
Reply: T

Ask: Decide: is the reported value of Population Pyknosed Nuclei (%) for "CC(/C=C1\SC(=S)N(CCCC(=O)Nc2ccc(C(=O)O)c(O)c2)C1=O)=C\c1ccccc1" equal to or greater than 8%?
Reply: F

Ask: Decide: is the reported value of Population Pyknosed Nuclei (%) for "CN(C)C(=O)Cn1cc(-c2ccc(-c3cncc4ccccc34)cc2)cn1" equal to or greater than 8%?
Reply: F

Ask: Decide: is the reported value of Population Pyknosed Nuclei (%) for "CCCOc1ccc2[nH]cc(C3=CCNCC3)c2n1.Cl" equal to or greater than 8%?
Reply: F

* * *

Tested on: HEK-293T
assayText: Multiplex assay against HEK293T
Assay type: toxicity, cell-based
details: human, 24 h, 10 µM, compound concentration 10 uM, replicate 2
Classify by measured Total Cell Count: class 1 if it is equal to or exceeds 400, class 0 if it is smaller.

// known answers, use as guide
Ask: Decide: is the reported value of Total Cell Count for "CC(C)COc1ccc(CNC(=O)N(Cc2ccc(F)cc2)C2CCN(C)CC2)cc1" equal to or greater than 400?
Reply: class 0

Ask: Decide: is the reported value of Total Cell Count for "CC(/C=C1\SC(=S)N(CCCC(=O)Nc2ccc(C(=O)O)c(O)c2)C1=O)=C\c1ccccc1" equal to or greater than 400?
Reply: class 1

Ask: Decide: is the reported value of Total Cell Count for "CC[C@@H](C)Nc1nc(C)nc2c(-c3ccc(OC)nc3C)c(C)nn12" equal to or greater than 400?
Reply: class 0

Ask: Decide: is the reported value of Total Cell Count for Cl.N=C(N)NC(=O)Cc1c(Cl)cccc1Cl [GUANFACINE HYDROCHLORIDE] equal to or greater than 400?
Reply: class 1

More entries:
Ask: Decide: is the reported value of Total Cell Count for Cc1sc2c(c1C)C(c1ccc(Cl)cc1)=N[C@@H](CC(=O)NCCCCCCCCNC(=O)COc1cccc3c1C(=O)N(C1CCC(=O)NC1=O)C3=O)c1nnc(C)n1-2 (stereo partly drawn) equal to or greater than 400?
Reply: class 0

Ask: Decide: is the reported value of Total Cell Count for Br.CS(=O)(=O)Nc1c(O)ccc2c1CCCC2C1=NCCN1 (stereo not drawn) equal to or greater than 400?
Reply: class 0

* * *

Hi there, I'd appreciate the recorded Population Apoptotic (%) for every entry that follows.
System: U2OS
assayText: Multiplex assay against U2OS
Type: toxicity, cell-based
details: human, 48 h, 10 µM, compound concentration 10 uM, replicate 1
Answers are plain numbers, in %.

Ask: Please report Population Apoptotic (%) for the following compound: "Cc1noc(-c2ccc(-c3ccc(CC(=O)O)cc3)cc2)c1NC(=O)O[C@H](C)c1ccccc1Cl"
Reply: 92

Ask: Please report Population Apoptotic (%) for the following compound: Br.CS(=O)(=O)Nc1c(O)ccc2c1CCCC2C1=NCCN1 (centres undefined)
Reply: 90

Ask: Please report Population Apoptotic (%) for the following compound: "CC(/C=C1\SC(=S)N(CCCC(=O)Nc2ccc(C(=O)O)c(O)c2)C1=O)=C\c1ccccc1"
Reply: 97

Ask: Please report Population Apoptotic (%) for the following compound: "Cc1c(CC(=O)O)c2cccnc2n1Cc1ccc(S(C)(=O)=O)cc1C(F)(F)F"
Reply: 91

Ask: Please report Population Apoptotic (%) for the following compound: "COc1ccccc1N1CCN(C[C@@H](C(=O)NC(C)(C)C)c2ccccc2)CC1.Cl.Cl"
Reply: 58

Ask: Please report Population Apoptotic (%) for the following compound: "CC(C)(C)c1cc(NC(=O)Nc2ccc(-c3cn4c(n3)sc3cc(OCCN5CCOCC5)ccc34)cc2)no1"
Reply: 72

Provide reported Population Apoptotic (%) for each item, in the same order as listed.
1. Cc1cnc(-c2cc(N3CCN(C(=O)CCS(C)(=O)=O)CC3)ncc2Cl)c(C)c1
2. CC[C@@H](C)Nc1nc(C)nc2c(-c3ccc(OC)nc3C)c(C)nn12
3. O=C(NCCN1CCC(n2c(=O)[nH]c3cc(Cl)ccc32)CC1)c1ccc(F)cc1 [HALOPEMIDE]

Reply:
1. 94
2. 94
3. 81

Origin of the recorded values: ChEMBL document CHEMBL5058577
